- System: NF-κB
- method_description: HAECT-1 NF-κB luciferase reporter assay in Ad5-wt-ER infected cells (IL-1β induced)
- Assay type: cell-based, human
- measurement_parameters: Homo sapiens, HAECT1; Ad5-wt-ER infected HAECT-1 cells, IL-1β, luciferase reporter
measured_metric: IC50 (nM)
Write it as a number; the unit nM goes unstated.

Exercise: Identify the measured IC50 of C[C@H]1c2cc(F)ccc2-c2ccccc2N1S(=O)(=O)c1ccc(O)cc1 for NF-κB.
Key: 59
